- Experimental Details: yeast display, Sf9 membrane polyspecificity reagent, FACS + sequencing; frameworks hold sequencing errors
Observable: polyreactivity (PSR sort gate)

QVQLVESGGGLVQAGGSLRLSCAASGRTFRYNTMGWYRQAPGKERELVAALTYRGGRTYYADSVKGRFTISRDHAKNTVYLQMNSLKPEDTAVYYCARDYYGSVRFDHWGQGTQVTVSS	high polyreactivity
QVQLLESGGGLVQAGGSLRLSCAASGSTFDIYTMGWYRQAPGKERELVAAISRSGTRTYYADSVKGRFTISRDNAKNTVYLQMNSLKPEDTAVYYCNAVQQYYGTWGYGYWGQGTQVTVSS	high polyreactivity

====

- Experimental Details: yeast display, Sf9 membrane polyspecificity reagent, FACS + sequencing; frameworks hold sequencing errors
Observable: polyreactivity (PSR sort gate)

Worked examples, 5 sequences total:
QVQLGESRGGLVQAGGSLRLSCAASGTFAYKTIGWYRQAPGKEREWVAAITSSGGSTYYADSVKGRFTISRDNAKNTVYVLMNSLKPEDTAVYYCDKGSTWYYRKYDYWGQGTQVTVSS	high polyreactivity
QVQLVESGGGLVQAGGSLRLSCAASGRIFGAYAMGWYRQAPGKERELVAAITSAGSTHYADSVKGRFTISRDNAKNTVYLQMNCLKPQDTAVYYCAADRYPWPLQYVEYDSDYWGQGTQVTVSS	low polyreactivity
QDQLVDSGGGLVQAGGSLRLSCAASGRIFSGNGMGWYSPAPGKERELVASISSGGRTYYADSVKGRFTISRDNAKITVYLQMNSLKPEDTAVYYCNRVASVRARDYDYWGQGTQVTVSS	high polyreactivity
QVQLVESAGGLVQAGGSLSLICAASGSTFVVNALGWYRQAPGKERELVAAITTSGGSTYYADSVKGRFTISRDNAKNTVYLQMNSLKPEDTAVYYCAAETWGYYGYGVDYDYWGQGTQVTVSS	high polyreactivity
QVQLVESGGGLVQAGGSLRLSCAASGSTFVDYALGWARQAPGKERELVAAISSSGGSTYYADSVKGRFTISRDTAKNTVYLQMNSLKPEDTAVYYCAARYDRSSKRNYWGQGTQVTVSS	low polyreactivity

Hi, could you look up polyreactivity (PSR sort gate) for each item in my list?
1. QVQLVESGGGLVQAGGSLRLSCAASGFTFRRYDMGWYRQAPGKERELVATLNRGGSTDYADSVKGRFTISRDNAKNTVYFQLNSLKPEETAVYYCATRYYSSRNWSEYYYWGQGTQVTVSS
2. QDQLVDSGGGLVQAGGSLRLSCAASGRIIGYNAMVWYRQGPGKERELVAAITTSGGSTYYADSVKGRFTISSDNAKNTVYLQMNSLKPVDTAVYYCARDSLQVFYPYASDDYWGQGTQVTVSS
3. QVQLVESGGGLVQAGGSLRLSCAASGNTFYKYAMGWYRQAPGKERELVADISWSGGSTYYADSVKGRFTISRDNAKNTVYLQMNSLKREDTAVYYCNADTPVWDGHAYPVDYWGQGTQVTVSS
4. QVQLVESGGGLVQAGGSLRLSCAASGRTFIYYTMGWYREAPGKERELVASISFSGGRTYYADSVKGRFTISRDNAKNTVYLQMNSLKAEDTAVYYCNRVLYYQVDYWGQGTEVTVSS
5. QVQLVESGGGLVQAGGSLRLSCAASGIIFWRYAMGWYRQAPGKERELVAAISRRGGSTYYADSVKGRFTISRDNAKITVYLQMNSLKPEDTAVYYCAVLDWTLHYRSDYWGQGTQVTVSS

Response given:
["high polyreactivity", "low polyreactivity", "low polyreactivity", "high polyreactivity", "high polyreactivity"]

Challenge: Field request: polyreactivity (PSR sort gate) | item: QVQLVESGGGLVQAGGSLRLSCAASGSSFSRNAMGWYRQAPGKESELVAAISWSGGRTYYAASVKGRFTISRDNAKNTVYLQMNSLKPEDTAVYYCAKGYSYHWYHVTYYSLGQGTQVTVSS
Response given: high polyreactivity

====

- Experimental Details: yeast display, Sf9 membrane polyspecificity reagent, FACS + sequencing; frameworks hold sequencing errors
Observable: polyreactivity (PSR sort gate)

QVQLVESGGGLVQAGGSLRLSCADSGRTFYPYVMGWYRQAPGKERELVADISWSGGRTYYADSVKGRFTISRDNAKNTVYLQMYSLKPEDTAVYYCCAGYRRRYNYWGQGTQVTVSS	high polyreactivity
QVQLVESGGGLVQAGGSLRLSCAASGSIFDGNAMGWYRQAPGKERELVAAISRRGGSTYYADSVKGRFTISRDKAKNTVYLQMNSLKPEDTAVYYCNAYLSYFDGNYWGQGTQVTVSS	high polyreactivity
QVQLVESGGGLVQAGGSLRLSCAASGSIFKWYAMGWYRQAPGKERELVAAITRGGSTNYADSVKGRFTISRDNAKNTVYLQMNSLKAEDTAVYYCNAVYTYRSGFGYWGQGTQVTVSS	low polyreactivity
QVQLVESGGGLVQAGGSLRLICAASGRIFRGNAMGWYRQAPGKERELVATISSDGSTNYADSVKGRFTISRDNAKNSVYLQMNSLKPEDTAVYYCAKGFYTITPHGMDYWGQGTQVTVSS	low polyreactivity
QVQLVESGGGLVQAGGSLRLICAASGLIFGPYAMGWYRQAPGKEREFVAAITRSDGSTYYADSVKGRFTISRDNAKNTVFLQMNSLNPEDTAVYYCNADAGYVWFGGAYYWPYDYWRQGTQVTVSS	low polyreactivity
QVQLVESGGGLVQAGGSLRLTCAASGRIFNAYAMGWYRQAPGKEREFVAAISYTVGSTYYADTVKGRFTISRDNAKITVNLQMISLKPEDTAVYYCAATGWDYYGGYDYWGQGTQVTVSS	high polyreactivity

Hi, could you look up polyreactivity (PSR sort gate) for each item in my list?
1. QVQLVESGGGLVQAGGSLRLSCAASGSTFIWYARGWYRQAPGKERELVAAISRSGGSTYYADSVKGRFTISRDNAKNTVYLQMNSLKPEDTAVYYCNTYPTYQYYYWGQGTQVTVSS
2. QVQLVESGGGVVQAGGSLRLSSAASGISFAYYAMGWYRQAPGKERELVASITNTGSTYYADSVKGRFTISRDNAKNSVYLEMTSLKPEDTAVYYCNAVLSSNTKWRYPGDDWGQGTQVTVSS
3. QVQLVESGGGLVQAGGSLRLSCAASGNTFRIYTMGWYRQSPGKEMELVATITRRGGSTYYADSVKGRFTISRDYAKNTVYLQMKSLKPEDTAVYYCAATTKLPRGHYWNYYWGQGTQVTVSS
4. HAQLQESGGGLVQAGGSLRRSCAASGSIFRFSGMGWYRRAPGKERELVASIGFGSITYYADRVKGRFTMSRDNANNTVYLQKNSLKPEDTAVDYCAVQVQDESWLDYWGQGTQVTVSC
5. QVQIVESGGGLVQAGGSLRLSCAASGITFLWNVMGWYRQAPGKERELVATITSIGGITNYADSVKGRFTISRDNAKNSVYLQMNSLKTEDSAFYYCATQIVSGSRVDRNDYWGQGTQVTVSS

Response given:
1: high polyreactivity; 2: low polyreactivity; 3: high polyreactivity; 4: low polyreactivity; 5: low polyreactivity

====

- Experimental Details: yeast display, Sf9 membrane polyspecificity reagent, FACS + sequencing; frameworks hold sequencing errors
Observable: polyreactivity (PSR sort gate)

QVQLVESGGGLVQAGGSLRLSCAASGITFEVYAMGWYRQAPGKERELVAVITSVGSTNYADSVKGRFTISRDNAKNTVYLQMNSLKPEDTAVYFCAAEKWTVRRFNPYTYYRFDYWGHGTQVTVSS	low polyreactivity
QVQLVESGGGLVQAGGSLRLSCAASGSILDLNAMGWYRQAPGKERELVAAISYSGDSTYYADSVKGRFTISRDNAKNTVYLQMNSLKPEDTAVYYCNAASFSDQGTLNHFYDWGQGTQVTVSS	low polyreactivity

====

- Experimental Details: yeast display, Sf9 membrane polyspecificity reagent, FACS + sequencing; frameworks hold sequencing errors
Observable: polyreactivity (PSR sort gate)

Worked examples, 10 sequences total:
QVQLVESGGGIVQAGRSLRLRCAASGFIFRYYTMGWYRQAPGKEREFVAAITSRGGSTYYSDSVKGRFTISRDNAKNTVYLQMNSLKPEDTAVYDCATTRWGYEYWGQGSQVTVSS	high polyreactivity
QDQLVESGGGLVQAGGSLRLSCAASGRLFSQYAMGWYRQAPGKERELVAAISWRTGSTYYADSVKGRFTISRDNAKNTVYLQMNSLKPEDTAVYYCSAANAGRYPYNYSGQGTQVTVSS	high polyreactivity
QVQLVESGGGLVQAGGSIRLSCAASGNTFRYYAMGWYRQAPGKERELVAGISRRGGSTYYADSVKGRFTISRDNAKNTVYLQMNSLKPEDTAVYYCNAVGGNGAVVAYGYWGQGTQVTVSS	high polyreactivity
QLQREESGGGLVQAGGSLRLSCAASGSTFEKNAMGWYRQAPAKERELVAALSNGVSTYDADSVKGRFPISRDNAKNSVYLLMNSLKPEDTAVYYCAADLFFGAETVYYAKFDYWGQGTQVTVSS	low polyreactivity
QVQLVESGGGLVQAGGSLRLSCAASGSIFAYNAMGWYRQAPGKDREFVAAISQSGGRTYYAHSVKGRFTISRDNAKNTVYLQMNILKPEDTAVYYCATDGIRLTRHRDYDYWGQGTQVTVSS	low polyreactivity
QVQLVESGGGLVQAGGSLRLRCAASGSIFRYNPMGWYRQAPGKERELVAPISWSGGHTYYADSVKGRFTISRDNAKNTDYLQLNSLKPEDTAVYYWATVPRKTPGNAELDYWGQGTQVTVSS	high polyreactivity
QVQLVESGGGLVQAGGSLRLSCAASGRIFRRYAMGWYRQAPGKERELVAAISSGGSTNYADSVKGRFTLSRDNAKNTVYLQMNSLKPEDTAVYYCAARRTATTSRAYYYWGQGTQVTVSS	high polyreactivity
QVQLVESGGGLVQAGGSLRFSCAASGRIFQYNAMGWYRQAPGKERELVASITSGVRTYYADSVKGRFTISRDNAKNTVYLQMNSLKPEDTAVYYCNAYSGGQYDYCGQGTQVTVSS	high polyreactivity
QVQLVESGGGLVQAGGSLRLSCAASGFTFGGNAMGWYRQAPGKERELVAAISGRGGRTFYADSVKGRFTISRDNAKNTVYLQMNSLKPEDTGVYYCAAYYRYDVGAYDYWGQGTQVTVSS	high polyreactivity
QVQLVESGRGLVQAGGSLRLRCAASGFTIYPYVMGWYRQAPGKERELVAAISWSGGRTSYADSVKGRFTISRDNAKNTVYLQMNSLKPEDTAVYYCATRPSHVLSEMDYWGQGTQVTVSS	low polyreactivity

Moving on to another sequence below.
Challenge: Field request: polyreactivity (PSR sort gate) | item: QVQLVESGGGLVQAGGSLRLSCAASGSIFYTYTMGWYRQAPGKERELVAAISTRGGSTYYADSVKGRFTISRDNAKNTFYLQMNSLKPEDTAVYYCAAGLQRYRMYYWGQGTQVTVSS
Response given: high polyreactivity
